B1: ESRRG (parent)
chain: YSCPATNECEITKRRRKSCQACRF

# Variants of: B1
# EXPERIMENTAL_DETAILS: protein stability index of a GFP-peptide fusion (GPS, HEK-293T) (PSI 1-6); higher = more stable;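 further: lentivirally expressed fusions sorted by FACS into six bins by GFP to DsRed ratio, PSI derived from sequencing read proportions per bin multiplied by bin number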
# CONDITION_LABEL: c terminus: a fixed tail appended
Entries and their protein stability index
Respond using a number only.

• A21C = 3.66

Ask | Give the reported protein stability index for this variant. Y1P
Reply | 4.32

Ask | Give the reported protein stability index for this variant. T12C
Reply | 3.85

Reference source for all entries: the supplement of paper PMC10567573
